B1: KIAA0774 (parent)
chain: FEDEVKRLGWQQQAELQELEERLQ

Variants of: B1
Protocol notes: protein stability index of a GFP-peptide fusion (GPS, HEK-293T) (PSI 1-6); higher = more stable;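 also: lentivirally expressed fusions sorted by FACS into six bins by GFP to DsRed ratio, PSI derived from sequencing read proportions per bin multiplied by bin number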
Experimental context: c terminus: a fixed tail appended
Metric: protein stability index

>>> val("W10P")
5.11
>>> val("L16K")
4.88
>>> val("W10S")
4.84
>>> val("Q13G")
5.35
>>> val("Q12I")
2.45
>>> val("E18I")
1.74
>>> val("W10G")
5.07
>>> val("R7P")
4.19
>>> val("F1I")
3.86
>>> val("L23T")
4.84
>>> val("G9R")
3.75
>>> val("Q11N")
4.52
>>> val("L8N")
3.48
>>> val("W10D")
5.8
>>> val("L23A")
4.08
>>> val("K6L")
4.12
>>> val("L19S")
4.39
